Assay: Half life in mouse at 10 mg/kg, po
Assay type: ADME, organism-based
Conditions: in vivo
ASSAY READOUT: half-life
Answer format: number, then unit.

Task: Give its half-life value. Item: `CS(=O)(=O)c1ccc(-n2nc(-c3cnc4[nH]ccc4c3)c3c(N)ncnc32)cc1`
Output: 2.28 h

====

Molecular target: Phosphatidylinositol 4,5-bisphosphate 3-kinase catalytic subunit delta isoform (Homo sapiens)
Sequence (O00329 whole entry, canonical isoform): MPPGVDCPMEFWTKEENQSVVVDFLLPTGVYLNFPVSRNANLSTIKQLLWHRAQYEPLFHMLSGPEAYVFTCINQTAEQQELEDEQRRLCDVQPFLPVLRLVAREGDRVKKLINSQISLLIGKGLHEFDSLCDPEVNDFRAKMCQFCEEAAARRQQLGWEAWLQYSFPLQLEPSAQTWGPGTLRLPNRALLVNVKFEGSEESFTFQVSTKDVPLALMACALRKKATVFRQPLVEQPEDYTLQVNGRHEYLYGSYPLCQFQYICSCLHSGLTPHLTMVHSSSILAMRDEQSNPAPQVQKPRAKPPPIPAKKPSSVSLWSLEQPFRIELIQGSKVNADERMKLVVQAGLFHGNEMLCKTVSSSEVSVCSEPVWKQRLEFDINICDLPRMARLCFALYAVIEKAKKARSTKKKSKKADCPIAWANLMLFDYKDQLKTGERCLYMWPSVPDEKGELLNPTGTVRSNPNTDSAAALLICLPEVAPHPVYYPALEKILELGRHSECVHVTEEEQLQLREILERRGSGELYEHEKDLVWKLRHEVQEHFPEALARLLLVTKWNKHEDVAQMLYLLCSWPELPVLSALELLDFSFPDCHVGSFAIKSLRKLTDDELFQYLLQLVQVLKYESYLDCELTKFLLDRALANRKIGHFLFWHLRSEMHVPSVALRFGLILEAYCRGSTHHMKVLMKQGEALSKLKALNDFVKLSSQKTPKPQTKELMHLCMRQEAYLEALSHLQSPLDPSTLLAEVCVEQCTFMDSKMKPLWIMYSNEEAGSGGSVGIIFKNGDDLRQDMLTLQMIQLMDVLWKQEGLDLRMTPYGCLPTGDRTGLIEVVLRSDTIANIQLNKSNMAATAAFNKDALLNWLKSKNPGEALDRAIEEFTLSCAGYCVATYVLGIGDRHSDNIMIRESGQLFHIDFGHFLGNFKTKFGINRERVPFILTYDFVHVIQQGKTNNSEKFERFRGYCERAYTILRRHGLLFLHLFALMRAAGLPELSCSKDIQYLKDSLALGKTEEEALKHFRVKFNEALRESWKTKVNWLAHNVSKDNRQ
Test: Inhibition of PI3Kdelta (unknown origin)
ASSAY READOUT: pIC50
Here pIC50 is given on a logarithmic scale as minus log10 of the concentration in mol/L.

Task: Give its pIC50 value. Item: Nc1nc2c(s1)CC(n1nc(-c3cc(F)c4[nH]ccc4c3)c3c(N)ncnc31)CC2 (stereo unspecified)
Output: 6.51
